test: Pyrotinib plasma pharmacokinetics with/without loperamide (Group B), LC-MS/MS, NCA; assay type: in vivo, healthy volunteers; conditions: human, plasma, oral; Group B, pyrotinib alone, 400 mg, day 1; mean (SD)
ASSAY_ENDPOINT: half-life (h)
Report the figure in h without appending any unit label.

-- ask Identify the reported half-life for the following entry. CCOc1cc2ncc(C#N)c(Nc3ccc(OCc4ccccn4)c(Cl)c3)c2cc1NC(=O)/C=C/[C@H]1CCCN1C [Pyrotinib]
-- reply 17.3

---

assay: Pyrotinib plasma pharmacokinetics with/without montmorillonite powder (Group A), LC-MS/MS, NCA; format: in vivo, healthy volunteers; conditions: human, plasma, oral, 400 mg; Group A, pyrotinib alone; mixed-effects model; read-out: Geometric least-square mean AUC0-∞
ASSAY_ENDPOINT: AUC(0-inf) (ng·h/mL)
Give a bare numeral; the unit ng·h/mL is implied.

-- ask Give the reported value of AUC(0-inf) for this record: CCOc1cc2ncc(C#N)c(Nc3ccc(OCc4ccccn4)c(Cl)c3)c2cc1NC(=O)/C=C/[C@H]1CCCN1C
-- reply 1880

---

experiment: Pyrotinib plasma pharmacokinetics with/without loperamide (Group B), LC-MS/MS, NCA; type: in vivo, healthy volunteers; conditions: human, plasma, oral, Group B, 400 mg pyrotinib + loperamide 4+2+2 mg, day 9; geometric mean (geometric CV); read-out: AUC0-∞
ASSAY_ENDPOINT: AUC(0-inf) (ng·h/mL)
Write the number in ng·h/mL without appending the unit.

-- ask For the molecule CCOc1cc2ncc(C#N)c(Nc3ccc(OCc4ccccn4)c(Cl)c3)c2cc1NC(=O)/C=C/[C@H]1CCCN1C [Pyrotinib] , give its reported AUC(0-inf).
-- reply 2500

---

test: Pyrotinib plasma pharmacokinetics with/without montmorillonite powder (Group A), LC-MS/MS, NCA; format: in vivo, healthy volunteers; settings: human, plasma, oral; Group A, pyrotinib alone, 400 mg, day 1; geometric mean (geometric CV); read-out: Vz/F
ASSAY_ENDPOINT: Vd/F (L)
Form entry: value (L) — number only.

-- ask Indicate the recorded Vd/F value for this molecule: CCOc1cc2ncc(C#N)c(Nc3ccc(OCc4ccccn4)c(Cl)c3)c2cc1NC(=O)/C=C/[C@H]1CCCN1C
-- reply 4580

Ref: paper PMC12104674
